I'd appreciate it if you could supply human MASP2 IC50 values for the items below.
target: Recombinant human MASP2 enzyme (fragment corresponding to amino acids 297-686, C-terminal His Tag) (human, UniProt O00187 297-686); assay: cell-based or functional assay
Sequence (O00187 other isoform, or with tags, fused parts or gaps limits assumed): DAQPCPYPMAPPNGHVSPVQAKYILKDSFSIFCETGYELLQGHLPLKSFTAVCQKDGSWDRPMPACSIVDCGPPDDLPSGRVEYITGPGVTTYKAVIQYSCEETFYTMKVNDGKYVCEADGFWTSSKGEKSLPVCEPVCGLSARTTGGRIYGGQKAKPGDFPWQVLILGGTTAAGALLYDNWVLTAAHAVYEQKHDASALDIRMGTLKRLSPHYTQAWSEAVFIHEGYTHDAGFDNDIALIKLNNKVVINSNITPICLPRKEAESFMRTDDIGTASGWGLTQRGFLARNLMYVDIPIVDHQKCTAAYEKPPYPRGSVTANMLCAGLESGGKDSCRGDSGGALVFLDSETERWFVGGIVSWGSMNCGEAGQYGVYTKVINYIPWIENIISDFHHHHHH
Bridge positions count the residues as written; N and C are the ends. Square brackets hold non-standard residues; d marks the D form. Ends that are not written are not given here. * marks the point of attachment. Cyclobutanecarbonyl = O=C(C1CCC1)*; tBuAla = CC(C)(C)C[C@H](N)C(=O)O; NMeC = CN[C@@H](CS)C(=O)O; Aib = CC(C)(N)C(=O)O
Write down the numeric answer in nM and omit the unit.

What the record says about Cyclobutanecarbonyl-ICSRS[tBuAla]PPI[NMeC]I-NH2 (disulfide 2-10; SMILES CC[C@H](C)[C@H](NC(=O)[C@@H]1CSSC[C@H](NC(=O)[C@@H](NC(=O)C2CCC2)[C@@H](C)CC)C(=O)N[C@@H](CO)C(=O)N[C@@H](CCCNC(=N)N)C(=O)N[C@@H](CO)C(=O)N[C@@H](CC(C)(C)C)C(=O)N2CCC[C@H]2C(=O)N2CCC[C@H]2C(=O)N[C@@H]([C@@H](C)CC)C(=O)N1C)C(N)=O) [(Cyclobutanecarboxylic)-IC+SRS-((tBu)A)-PPI-((N-Me)C)+I-NH2] : human MASP2 IC50 is 19

Entry under test: GICSRSLPPICI[Aib]D-OH (disulfide 3-11; N-terminus assumed; SMILES CC[C@H](C)[C@H](NC(=O)CN)C(=O)N[C@H]1CSSC[C@@H](C(=O)N[C@H](C(=O)NC(C)(C)C(=O)N[C@@H](CC(=O)O)C(=O)O)[C@@H](C)CC)NC(=O)[C@H]([C@@H](C)CC)NC(=O)[C@@H]2CCCN2C(=O)[C@@H]2CCCN2C(=O)[C@H](CC(C)C)NC(=O)[C@H](CO)NC(=O)[C@H](CCCNC(=N)N)NC(=O)[C@H](CO)NC1=O) [GIC+SRSLPPIC+I-(Aib)-D-OH] . Its human MASP2 IC50 was 160

src = patent US20210246166A1
